Molecular target: human Src enzyme (Homo sapiens)
Construct: purchased Carna Biosciences, Inc. 08-173
Sequence (P12931 whole entry): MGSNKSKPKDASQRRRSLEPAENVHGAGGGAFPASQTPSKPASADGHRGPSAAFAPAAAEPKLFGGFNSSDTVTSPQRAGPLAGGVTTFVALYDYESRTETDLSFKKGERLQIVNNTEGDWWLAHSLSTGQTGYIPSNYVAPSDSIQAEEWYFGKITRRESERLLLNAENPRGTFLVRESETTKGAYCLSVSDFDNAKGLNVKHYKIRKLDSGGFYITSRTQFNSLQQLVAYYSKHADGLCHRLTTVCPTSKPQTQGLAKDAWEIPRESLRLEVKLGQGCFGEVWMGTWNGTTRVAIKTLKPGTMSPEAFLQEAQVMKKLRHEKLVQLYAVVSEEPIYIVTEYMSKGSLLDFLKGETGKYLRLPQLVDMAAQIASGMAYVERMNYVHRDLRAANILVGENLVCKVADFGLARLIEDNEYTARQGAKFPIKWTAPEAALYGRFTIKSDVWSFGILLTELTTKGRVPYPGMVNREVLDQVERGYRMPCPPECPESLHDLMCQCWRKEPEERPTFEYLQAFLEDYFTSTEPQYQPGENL
Experiment: Src enzyme inhibitory activity (time-resolved fluorometry, biotinylated peptide phosphorylation)
Assay type: biochemical
Conditions: biotinylated peptide phosphorylation, read-out: SRC_IC50
PARAMETER_MEASURED: IC50 (nM)

Worked set:
[[record]]
compound = "Cc1cc2cc(C(=O)c3cnn(-c4cnc(Oc5ccccc5F)cc4C)c3N)[nH]c2cc1NS(=O)(=O)c1cccc(Cl)c1 [Example 5-1-464]"
parameter_measured = "IC50"
unit_descriptor = "nM"
reading = 1200

[[record]]
compound = "Cc1cc(Oc2ccccc2F)ccc1-n1ncc(C(=O)c2cc3cc(OCC(F)F)c(NC4CN(S(C)(=O)=O)C4)cc3[nH]2)c1N [Example 4-23-018]"
parameter_measured = "IC50"
unit_descriptor = "nM"
reading = 18

[[record]]
compound = "Cc1cc(Oc2c(F)cccc2F)ncc1-n1ncc(C(=O)c2cc3cc(F)c(N4C(=O)N[C@@H](Cc5ccccc5)C4=O)cc3[nH]2)c1N [Example 5-1-430]"
parameter_measured = "IC50"
unit_descriptor = "nM"
reading = 280

[[record]]
compound = "COc1cc2cc(C(=O)c3cnn(-c4ccc(Oc5ccccc5F)cc4C)c3N)[nH]c2cc1NS(=O)(=O)CC(=O)N1CCOCC1 [Example 4-10-012]"
parameter_measured = "IC50"
unit_descriptor = "nM"
reading = 9.8


A: Cc1cc(Oc2ccccc2F)ccc1-n1ncc(C(=O)c2cc3cc(OC4CCOCC4)c(NS(C)(=O)=O)cc3[nH]2)c1N [Example 4-24-036]
B: Cc1cc(Oc2ccccc2Cl)ccc1-n1ncc(C(=O)c2cc3cc(F)c(C4CCN(C(C)C)CC4)cc3[nH]2)c1N [Example 4-2-012]
C: Cc1cc(Oc2ccccc2F)ccc1-n1ncc(C(=O)c2cc3cc(OC(F)F)c(N4C(=O)NC(C)(C)C4=O)cc3[nH]2)c1N [Example 4-23-035]
Write the entries in order, lowest recorded IC50 first. Write the labels, ordered according to the request.
B, C, A
